# Test Target: T1, hPRLR.mFc (soluble dimeric human PRLR) (human)
# T1 construct: dimeric PRLR construct
# T1 chain: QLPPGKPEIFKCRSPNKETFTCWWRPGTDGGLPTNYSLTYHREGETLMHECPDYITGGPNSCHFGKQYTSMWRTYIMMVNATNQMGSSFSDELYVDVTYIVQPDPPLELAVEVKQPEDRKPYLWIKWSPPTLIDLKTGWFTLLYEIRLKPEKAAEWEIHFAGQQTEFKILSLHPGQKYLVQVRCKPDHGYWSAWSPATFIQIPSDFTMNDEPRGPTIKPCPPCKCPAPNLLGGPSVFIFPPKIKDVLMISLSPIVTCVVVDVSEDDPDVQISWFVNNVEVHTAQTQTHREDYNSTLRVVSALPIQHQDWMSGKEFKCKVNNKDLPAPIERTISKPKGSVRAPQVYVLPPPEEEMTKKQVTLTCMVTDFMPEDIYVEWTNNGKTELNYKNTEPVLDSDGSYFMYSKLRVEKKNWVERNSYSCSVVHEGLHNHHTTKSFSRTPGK
# Assay Overview: SPR Biacore, 25 C, mAb capture
Item-by-item account of koff
Your reply should be a number followed by the unit it is expressed in.

Example cases with answers are listed next.
{"Binder": "H1H6765P (antibody, human IgG1, V domains shown, Human IgG1 Fc (H1H)) VH: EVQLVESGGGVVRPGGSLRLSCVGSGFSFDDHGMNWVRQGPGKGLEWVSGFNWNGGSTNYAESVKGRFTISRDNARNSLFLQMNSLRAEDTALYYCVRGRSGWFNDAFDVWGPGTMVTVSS VL: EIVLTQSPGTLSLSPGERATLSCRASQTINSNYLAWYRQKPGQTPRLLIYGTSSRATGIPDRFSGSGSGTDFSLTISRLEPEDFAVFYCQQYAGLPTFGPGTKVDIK", "Outcome Measure": "koff", "Test Value": "3.41e-05 s⁻¹"}
{"Binder": "H1H6804P (antibody, human IgG1, V domains shown, Human IgG1 Fc (H1H)) VH: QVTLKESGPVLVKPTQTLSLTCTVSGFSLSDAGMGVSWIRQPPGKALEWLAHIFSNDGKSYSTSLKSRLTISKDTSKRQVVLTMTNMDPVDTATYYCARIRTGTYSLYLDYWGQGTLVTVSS VL: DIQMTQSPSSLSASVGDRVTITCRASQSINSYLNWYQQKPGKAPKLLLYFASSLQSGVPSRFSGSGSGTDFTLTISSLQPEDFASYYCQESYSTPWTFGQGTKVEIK", "Outcome Measure": "koff", "Test Value": "8.69e-05 s⁻¹"}
{"Binder": "H1H6959N2 (antibody, human IgG1, V domains shown, Tested with human IgG1 Fc (H1H); also called H2M6959N2) VH: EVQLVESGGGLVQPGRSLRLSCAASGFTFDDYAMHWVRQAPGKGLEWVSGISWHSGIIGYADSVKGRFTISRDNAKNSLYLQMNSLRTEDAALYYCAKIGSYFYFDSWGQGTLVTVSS VL: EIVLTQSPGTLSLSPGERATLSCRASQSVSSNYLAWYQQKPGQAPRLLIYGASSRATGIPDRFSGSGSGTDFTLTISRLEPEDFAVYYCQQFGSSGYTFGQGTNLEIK", "Outcome Measure": "koff", "Test Value": "0.000518 s⁻¹"}
{"Binder": "H1H6967N (antibody, human IgG1, V domains shown, Tested with human IgG1 Fc (H1H); also called H2M6967N) VH: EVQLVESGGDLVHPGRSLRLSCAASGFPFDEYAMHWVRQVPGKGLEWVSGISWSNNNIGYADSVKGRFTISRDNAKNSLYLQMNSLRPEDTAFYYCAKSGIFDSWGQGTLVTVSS VL: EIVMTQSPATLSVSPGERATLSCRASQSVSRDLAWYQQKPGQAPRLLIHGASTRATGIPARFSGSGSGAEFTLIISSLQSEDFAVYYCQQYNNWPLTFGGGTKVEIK", "Outcome Measure": "koff", "Test Value": "4.45e-05 s⁻¹"}
{"Binder": "H1H6792P (antibody, human IgG1, V domains shown, Human IgG1 Fc (H1H)) VH: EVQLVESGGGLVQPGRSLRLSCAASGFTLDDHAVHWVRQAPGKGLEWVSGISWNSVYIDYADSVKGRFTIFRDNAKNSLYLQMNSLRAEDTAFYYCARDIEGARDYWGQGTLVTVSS VL: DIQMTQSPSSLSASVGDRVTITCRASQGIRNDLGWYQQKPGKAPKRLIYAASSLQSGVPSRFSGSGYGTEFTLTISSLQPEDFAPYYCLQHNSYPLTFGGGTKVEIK", "Outcome Measure": "koff", "Test Value": "9.48e-05 s⁻¹"}
{"Binder": "H1H6781P (antibody, human IgG1, V domains shown, Human IgG1 Fc (H1H)) VH: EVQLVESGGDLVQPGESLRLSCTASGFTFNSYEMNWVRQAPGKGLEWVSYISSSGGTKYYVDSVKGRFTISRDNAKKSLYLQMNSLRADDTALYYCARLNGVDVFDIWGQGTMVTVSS VL: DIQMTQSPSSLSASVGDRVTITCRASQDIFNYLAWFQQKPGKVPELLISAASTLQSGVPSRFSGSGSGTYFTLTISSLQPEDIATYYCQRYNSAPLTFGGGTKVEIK", "Outcome Measure": "koff", "Test Value": "6.05e-05 s⁻¹"}
{"Binder": "H1H6790P (antibody, human IgG1, V domains shown, Human IgG1 Fc (H1H)) VH: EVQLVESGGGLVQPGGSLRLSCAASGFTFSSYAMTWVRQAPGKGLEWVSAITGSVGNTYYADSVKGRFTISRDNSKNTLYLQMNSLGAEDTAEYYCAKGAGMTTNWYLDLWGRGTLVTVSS VL: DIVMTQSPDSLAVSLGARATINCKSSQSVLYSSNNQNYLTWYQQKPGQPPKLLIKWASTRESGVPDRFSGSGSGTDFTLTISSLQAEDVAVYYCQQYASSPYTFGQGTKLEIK", "Outcome Measure": "koff", "Test Value": "0.000104 s⁻¹"}
{"Binder": "H1H6793P (antibody, human IgG1, V domains shown, Human IgG1 Fc (H1H)) VH: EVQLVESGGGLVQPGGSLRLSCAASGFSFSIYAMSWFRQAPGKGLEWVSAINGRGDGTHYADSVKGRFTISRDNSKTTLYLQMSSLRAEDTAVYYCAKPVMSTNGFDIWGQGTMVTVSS VL: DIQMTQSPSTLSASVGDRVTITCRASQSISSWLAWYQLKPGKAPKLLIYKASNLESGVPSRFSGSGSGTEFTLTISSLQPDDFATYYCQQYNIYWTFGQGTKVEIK", "Outcome Measure": "koff", "Test Value": "7.57e-05 s⁻¹"}
{"Binder": "H1H6800P (antibody, human IgG1, V domains shown, Human IgG1 Fc (H1H)) VH: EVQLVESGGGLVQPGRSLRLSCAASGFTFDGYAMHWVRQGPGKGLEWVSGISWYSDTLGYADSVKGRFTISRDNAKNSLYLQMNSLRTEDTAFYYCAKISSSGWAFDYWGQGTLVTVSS VL: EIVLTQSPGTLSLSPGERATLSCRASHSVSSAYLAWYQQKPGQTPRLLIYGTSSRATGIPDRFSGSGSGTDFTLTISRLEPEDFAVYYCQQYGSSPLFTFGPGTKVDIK", "Outcome Measure": "koff", "Test Value": "8.69e-05 s⁻¹"}

Note: attention shifts to another entry.
Look up and state reported koff for H1H6958N2 (antibody, human IgG1, V domains shown, Tested with human IgG1 Fc (H1H); also called H2M6958N2) VH: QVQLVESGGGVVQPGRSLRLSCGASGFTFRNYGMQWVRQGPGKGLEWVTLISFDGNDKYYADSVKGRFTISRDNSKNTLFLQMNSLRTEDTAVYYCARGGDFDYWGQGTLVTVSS VL: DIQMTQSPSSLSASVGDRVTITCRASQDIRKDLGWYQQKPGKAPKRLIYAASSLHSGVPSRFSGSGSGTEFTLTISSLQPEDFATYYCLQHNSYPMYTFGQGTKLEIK
3.66e-05 s⁻¹
